- Test system: hypoxia-inducible endogenous VEGF expression in HeLa cells
- Procedure Text: Hypoxia-inducible endogenous VEGF expression, VEGF ELISA of conditioned media (dose-response EC50)
- Format: cell-based
- Assay Setup: Homo sapiens, HeLa cells, hypoxic conditions (1% O2)
EC50 overview

Examples with their reported EC50 follow.
>>> val("CCOC(=O)N1CCc2c([nH]c3ccc(Cl)cc23)C1c1cccc(C(=O)N2CCN(CC)CC2)c1 (centres unmarked) [Compound 525]")
"200 to 1000 nM"
>>> val("O=C(Oc1ccc(Cl)cc1)N1CCc2c([nH]c3ccc(Cl)cc23)C1c1ccc(OCC2CO2)cc1 (centres unmarked) [Compound 460]")
"8 to 40 nM"
>>> val("CCOC(=O)N1CCc2c([nH]c3ccc(Cl)cc23)C1c1ccc(C(=O)N2CCOCC2)cc1 (centres unmarked) [Compound 492]")
"40 to 200 nM"
>>> val("COC(=O)C(=O)N1CCc2c([nH]c3ccc(Cl)cc23)C1c1ccc(OC)cc1 (centres unmarked) [Compound 485]")
"40 to 200 nM"

// EC50 value for COCCOCCOc1ccc(C2c3[nH]c4ccc(Cl)cc4c3CCN2C(=O)Oc2ccc(Br)cc2)cc1 (centres unmarked) [Compound 680] : < 8 nM

// EC50 value for C=CCOc1ccc(C2c3[nH]c4ccc(Cl)cc4c3CCN2C(=O)Oc2ccc(Cl)cc2)cc1 (centres unmarked) [Compound 400] : < 8 nM

// EC50 value for O=C(Oc1ccc(F)cc1)N1CCc2c([nH]c3ccc(Cl)cc23)C1c1ccc(OCCCCCCN2CCCCC2)cc1 (centres unmarked) [Compound 777] : < 8 nM

// EC50 value for O=C(Oc1ccc(F)cc1)N1CCc2c([nH]c3ccc(Cl)cc23)C1c1ccc(OCCCCCCn2ccnc2)cc1 (centres unmarked) [Compound 780] : < 8 nM

// EC50 value for CCOC(=O)N1CCc2c([nH]c3ccc(Br)cc23)C1c1ccc(C(=O)N(C)C)cc1 (centres unmarked) [Compound 483] : 40 to 200 nM

// EC50 value for C=CC(=O)Nc1ccc(C2c3[nH]c4ccc(Cl)cc4c3CCN2C(=O)Oc2ccc(Cl)cc2)cc1 (centres unmarked) [Compound 500] : 40 to 200 nM

// EC50 value for CCOC(=O)N1CCc2c([nH]c3ccc(Cl)cc23)C1c1ccc(C(=O)N2CCN(CCOC)CC2)cc1 (centres unmarked) [Compound 469] : 8 to 40 nM

Source listed as patent US8076352B2.
